Target: T1, natriuretic peptide receptor-B (human)
T1 chain: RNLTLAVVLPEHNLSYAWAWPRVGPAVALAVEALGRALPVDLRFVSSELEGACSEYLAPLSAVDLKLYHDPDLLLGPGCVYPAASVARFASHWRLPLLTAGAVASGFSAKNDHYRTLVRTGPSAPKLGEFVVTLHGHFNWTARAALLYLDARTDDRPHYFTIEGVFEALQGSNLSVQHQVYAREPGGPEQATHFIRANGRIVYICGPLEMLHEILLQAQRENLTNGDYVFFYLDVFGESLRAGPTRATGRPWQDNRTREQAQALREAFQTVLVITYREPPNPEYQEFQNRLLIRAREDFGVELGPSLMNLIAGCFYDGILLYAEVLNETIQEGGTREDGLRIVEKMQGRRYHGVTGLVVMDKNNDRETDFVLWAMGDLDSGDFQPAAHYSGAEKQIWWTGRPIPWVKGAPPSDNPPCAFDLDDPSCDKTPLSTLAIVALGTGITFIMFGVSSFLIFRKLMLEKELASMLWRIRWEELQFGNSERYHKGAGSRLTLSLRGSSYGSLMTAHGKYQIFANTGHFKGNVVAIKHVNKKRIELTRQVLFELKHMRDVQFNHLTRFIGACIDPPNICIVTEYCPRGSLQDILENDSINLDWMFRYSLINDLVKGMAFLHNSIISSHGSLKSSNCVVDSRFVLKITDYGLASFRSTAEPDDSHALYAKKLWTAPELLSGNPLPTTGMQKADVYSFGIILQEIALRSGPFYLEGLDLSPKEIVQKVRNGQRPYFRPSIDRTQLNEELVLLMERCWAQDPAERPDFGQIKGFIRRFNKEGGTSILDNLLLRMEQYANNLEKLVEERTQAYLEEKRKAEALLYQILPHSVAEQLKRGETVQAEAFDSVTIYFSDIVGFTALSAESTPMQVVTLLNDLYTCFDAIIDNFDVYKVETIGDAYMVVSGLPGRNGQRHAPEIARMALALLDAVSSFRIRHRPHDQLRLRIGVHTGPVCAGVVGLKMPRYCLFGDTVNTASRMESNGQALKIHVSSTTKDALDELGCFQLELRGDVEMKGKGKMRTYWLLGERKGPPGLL
Assay: cell-based or functional assay
Numbered stars: 1 amine (or outer) side, 2 acyl side, 3 side chain; on linkers, the order of the positions; unused ones are H or OH. Square brackets hold non-standard residues; d marks the D form. Ends that are not written are not given here. * marks the point of attachment. 785 = 2-phenethyl-benzoic acid, O=C(c1ccccc1CCc1ccccc1)*; Sni = (S)-nipecotic acid, O=C([C@H]1CCCN([*:1])C1)[*:2]; NH((S)-tetralin-1-yl) = c1ccc2c(c1)CCC[C@@H]2N*; Cpp = rac-(3R,4S)-cis-methanoproline; Hyp = O=C(O)[C@@H]1C[C@@H](O)CN1; NMeL = CN[C@@H](CC(C)C)C(=O)O; Nle = CCCC[C@H](N)C(=O)O; Octanoyl = CCCCCCCC(=O)*; Thz = O=C(O)[C@@H]1CSCN1; Che = not defined here; leu = not defined here; Occ = octanoic acid
endpoint: EC50 group, cGMP in GTM-3 cells

binder: [Occ]AFGLPLTRI-NH2 (not fully specified (residue 2); printed as Occ-ala-Phe-Gly-Leu-Pro-Leu-Thr-Arg-Ile-NH2) [JAL-0929]
EC50 group, cGMP in GTM-3 cells: ≤ 15 µM
--
binder: Octanoyl-AFLL[Hyp][NMeL]D[Cpp]I-NH2 (also: lower-case ala, leu: meaning not given here) [JAL-1443]
EC50 group, cGMP in GTM-3 cells: ≤ 5 µM
--
binder: Octanoyl-[Sni]F[leu]L[Hyp][NMeL]DPI-NHMe (reading uncertain; also: printed as Occ-Sni-Phe-leu-Leu-Hyp-Nml-Asp-Pro-Ile-(NH-CH3)) [JAL-1475]
EC50 group, cGMP in GTM-3 cells: ≤ 5 µM
--
binder: [Occ][Sni]FLL[Hyp][NMeL]VR[Che] (not fully specified (residue 4); printed as Occ-Sni-Phe-leu-Leu-Hyp-Nml-Val-Arg-Che; reading uncertain) [JAL-1730]
EC50 group, cGMP in GTM-3 cells: ≤ 1 µM
--
binder: [Occ][Sni]FLL[Hyp][NMeL]DP[NH((S)-tetralin-1-yl)] (not fully specified (residue 4); printed as Occ-Sni-Phe-leu-Leu-Hyp-Nml-Asp-Pro-2118) [JAL-1506]
EC50 group, cGMP in GTM-3 cells: ≤ 5 µM
--
binder: [Occ]AFGL[Thz]LDRI-NH2 (not fully specified (residue 2); printed as Occ-ala-Phe-Gly-Leu-Eaz-Leu-Asp-Arg-Ile-NH2) [JAL-0980]
EC50 group, cGMP in GTM-3 cells: ≤ 15 µM
--
binder: [785][Sni]F[leu]L[Hyp][NMeL]DRI-NH2 (reading uncertain; also: printed as 785-Sni-Phe-leu-Leu-Hyp-Nml-Asp-Arg-Ile-NH2) [JAL-1660]
EC50 group, cGMP in GTM-3 cells: ≤ 15 µM
--
binder: Octanoyl-[dA][dA]FGLK[Nle]DRI-NH2 [JAL-0775]
EC50 group, cGMP in GTM-3 cells: ≤ 15 µM

Shift focus to the following entry.
Please report the measured EC50 group, cGMP in GTM-3 cells for Octanoyl-[dA]FGLKLDRI-NH2 [JAL-0738]
≤ 15 µM
